Consider the following molecules; for each one, report its melting point.

melting point in this record for O=C(O)C(Cc1cnc[nH]1)Sc1[nH]nc(-c2ccc(Cl)cc2)c1-c1ccncc1 (stereo not shown) : 163 to 165 °C

// melting point lookup, molecule = O=C(C(=C1SCS1)c1ccncc1)c1ccc(OC(F)(F)F)cc1 , result: 182.6 to 183 °C

Notebook: N#Cc1ccc(C(=O)C(=C2SCS2)c2ccncc2)cc1 , melting point read as 193.3 to 193.4 °C

Notebook: Clc1ccc(-c2n[nH]c(SCCN3CCCC3)c2-c2ccncc2)cc1 , melting point read as 189.9 to 190.1 °C

get_value(item= Clc1ccc(-c2n[nH]cc2-c2ccncn2)cc1 , readout=melting point) returns 218.17 °C

GET /value?item= COc1ccc(-n2nc(-c3ccc(F)cc3)c(-c3ccncc3)c2-c2cnc[nH]2)cc1 &field=melting point returns 124 to 126 °C

Measured melting point of CCn1nc(C)c(-c2ccncc2)c1-c1ccc(Cl)cc1 : 153.46 °C

###

Would you mind telling me the reported pIC50 of each entry?
TARGET_DESC: human p38 kinase alpha (Homo sapiens)
Construct: GST (N, cleaved yes); made in house; host or cells: E. coli DH10B
Sequence (Q16539 whole entry): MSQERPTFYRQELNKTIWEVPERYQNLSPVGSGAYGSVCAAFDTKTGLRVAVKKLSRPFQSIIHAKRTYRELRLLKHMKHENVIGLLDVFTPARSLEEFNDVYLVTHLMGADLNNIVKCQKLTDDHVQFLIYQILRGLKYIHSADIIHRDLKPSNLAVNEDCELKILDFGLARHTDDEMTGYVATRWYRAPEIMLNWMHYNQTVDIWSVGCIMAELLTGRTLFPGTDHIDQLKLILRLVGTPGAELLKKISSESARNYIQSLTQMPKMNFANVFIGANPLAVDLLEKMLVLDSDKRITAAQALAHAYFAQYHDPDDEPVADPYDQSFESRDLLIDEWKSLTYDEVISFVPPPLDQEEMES
PROCEDURE_SUMMARY: p38 kinase in vitro assay, phosphorylation of biotinylated PHAS-I with 32P-ATP
Assay type: biochemical
CONDITION_DESCRIPTION: in vitro P38-alpha kinase inhibition; read-out: P38 alpha kinase IC50
Procedure: The coding region of the human p38a cDNA was obtained by PCR-amplification from RNA isolated from the human monocyte cell line THP.1. […] Random primer, dNTP's and Superscript™ reagents were all purchased from Life-Technologies, Gaithersburg, Mass. The reaction was incubated at 42° C. for 1 hour. […]
pIC50 here is simply -log10 of the concentration when that concentration is written in mol/L.

The molecule listed as COc1ccc(S(=O)(=O)NC(Cc2ccccc2)c2[nH]nc(-c3ccc(F)cc3)c2-c2ccncc2)cc1 (stereo not shown) [Example B-0719] shows pIC50 equal to 5.47

Notebook: Cn1cnc(S(=O)(=O)NCCc2[nH]nc(-c3ccc(F)cc3)c2-c2ccncc2)c1 , pIC50 read as 7.16

Reported pIC50 of CN(C)S(=O)(=O)NCCc1[nH]nc(-c2ccc(F)cc2)c1-c1ccncc1 : 7.62

###

Please respond with reported inhibition at 1 µM for every item in the list.
System: TNF-α, U937 human histiocytic lymphoma cell line
PROCEDURE_SUMMARY: LPS stimulation of TNF production by U937 cells
Type: cell-based
CONDITION_DESCRIPTION: Homo sapiens, U-937, @ 1.0 uM; TNF production, U937 cells stimulated with LPS; read-out: U937 Cell % inhib @ conc.
# output: numeric value plus its unit

The measured inhibition at 1 µM associated with Cc1cccc(C(=O)NCc2[nH]nc(-c3ccc(F)cc3)c2-c2ccncc2)c1 reads 44%

The molecule listed as CN(C)c1cccc2c(S(=O)(=O)NCCc3[nH]nc(-c4ccc(F)cc4)c3-c3ccncc3)cccc12 has a reported inhibition at 1 µM of 28%

inhibition at 1 µM in this record for O=C(NCCc1[nH]nc(-c2ccc(F)cc2)c1-c1ccncc1)c1cc(F)cc(F)c1 : 29%

The molecule listed as O=S(=O)(NCCc1[nH]nc(-c2ccc(F)cc2)c1-c1ccncc1)c1ccc(Cl)cc1Cl has a reported inhibition at 1 µM of 31%

// inhibition at 1 µM lookup, molecule = CC1(C)C2CCC1(CS(=O)(=O)NCc1[nH]nc(-c3ccc(F)cc3)c1-c1ccncc1)C(=O)C2 (stereo not shown) , result: 20%

// field: inhibition at 1 µM; key: COc1ccc(OC)c(S(=O)(=O)NCCc2[nH]nc(-c3ccc(F)cc3)c2-c2ccncc2)c1 ; value = 29%

Note to self: inhibition at 1 µM recorded for COc1ccccc1C(=O)NC(Cc1ccccc1)c1[nH]nc(-c2ccc(F)cc2)c1-c1ccncc1 (stereo not shown) was 2%

Where do the numbers come from? From patent US6979686B1.
